# Tgt: Spike glycoprotein (Wuhan-Hu-1) RBD (Severe acute respiratory syndrome …, UniProt P0DTC2)
# Test Protocol: ELISA
Endpoint Label: Kd (nM)

Binder	Endpoint Label	Measured
Sb92 sherpabody (designed binder) EEYIAVGDFFSTDPADLTFKKGEILLVIERGTSAGDGWWIAKDAKGNEGLVPRTYLEPYS	Kd	30
